ASSAY_INFO: self-splicing fitness, log relative to wild type (ln ratio); higher = more splicing; Tetrahymena group I intron in knt gene, E. coli kanamycin selection, DiMSum; sequences stand for … in CUCUCU…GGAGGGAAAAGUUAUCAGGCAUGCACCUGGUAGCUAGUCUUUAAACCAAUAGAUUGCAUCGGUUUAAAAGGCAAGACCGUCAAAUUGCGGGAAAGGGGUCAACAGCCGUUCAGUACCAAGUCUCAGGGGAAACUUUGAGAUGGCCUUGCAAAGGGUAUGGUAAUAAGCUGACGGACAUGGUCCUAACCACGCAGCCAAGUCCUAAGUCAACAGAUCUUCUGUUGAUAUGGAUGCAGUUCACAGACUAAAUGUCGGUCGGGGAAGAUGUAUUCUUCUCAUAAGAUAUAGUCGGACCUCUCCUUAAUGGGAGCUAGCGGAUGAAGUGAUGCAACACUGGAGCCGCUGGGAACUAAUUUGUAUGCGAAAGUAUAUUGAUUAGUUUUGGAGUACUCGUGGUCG;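 further: selection with 25 µg/mL kanamycin versus none on LB agar overnight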
CONDITION_SUMMARY: 37 °C
I would appreciate it if you labelled entries Fulfilled when self-splicing fitness (ln) is -2 or higher, otherwise Not fulfilled.

The examples below pair each entry with its known result.
GGCGAGCAAUAUUACGGCAC
Fulfilled
UCAAAGCAAUAUUACGCUAC
Not fulfilled
GUUUAGCAAUAUUACGGCAC
Fulfilled
GCUUAGCAAUAUUACGUUAA
Not fulfilled
AAUCAGCAAUAUUACGGAAG
Fulfilled

Incoming: Tell me whether self-splicing fitness (ln) is at least -2 here: GAGAAGCAAUAUUACGACAU
Outgoing: Fulfilled
